Values were extracted from the METLIN SMRT retention time set (Domingo-Almenara et al. 2019).

- ASSAY METHOD TEXT: gradient 5% acetonitrile 3 min, to 50% in 2 min, to 85% in 15 min, held 3 min, 100 µL/min
- RECORDED CONDITIONS: column: Zorbax Extend-C18 2.1 x 50 mm; eluents: water / acetonitrile, 0.1% formic acid
OBSERVABLE: RP-LC retention time (s)

Example entries begin here.
>>> reported("O=C(C1=CN(c2ccc(Oc3ccccc3)cc2)c2ccccc2S1(=O)=O)N1CCOCC1")
913
>>> reported("COC(=O)c1cc(OCC(=O)Nc2ccc3c(c2)OCO3)c2cc(Cl)ccc2n1")
863
>>> reported("Cc1nnc2sc(SCc3ccc(Cl)cc3Cl)nn2c1=O")
869

(I) Cc1ccc(N2CCN(C(=O)C3CCCN(c4nccc5sc(C)cc45)C3)CC2)cc1 (stereo not given)
(II) Cc1ccc(NS(=O)(=O)c2cc(-c3cc(C(F)(F)F)on3)sc2C)c(C)c1
Which value of RP-LC retention time is greater, the one for I or the one for II ? Answer format: the label of the selected item.
II
